The values you see were collected from patent US9833497B2.

MIC listing for selected substances.
# System: Serratia marcescens
# protocolText: MIC against Gram-negative bacteria: Serratia marcescens
# Type: cell-based
# cond: S. marcescens; 10 h cultivation at 37° C.; 5×10^5 CFU/mL
# Method: 1. Gram-negative bacteria, such as E. coli BL21, Pseudomonas aeruginosa, Klebsiella pneumonia, Enterobacter cloacae, Aeromonas hydrophila, Citrobacter diversus, Moraxella catarrhalis, Proteus mirabilis, Proteus vulgaris, Serratia marcescens, etc were streaked on solid LB medium and cultured respectively. Then, typical clones were picked, inoculated into common liquid LB medium respectively, and cultured at 37° C. with shaking at 185 rpm until the McFarland specific turbidity was 0.5. […]
Report only the number, with the unit µg/mL understood.

Reference set, count: 3
- substance: "PRT403 (DNDECSAQPGPCGAHGHCHNTPGSFRCECHQGFTLVSSGHGCE; listed as Homo sapiens)"
  measurementKind: "MIC"
  numericResult: 50
- substance: "PRT438 (DIDECALGRHTCHAGQDCDNTIGSYRCVVRCGSGFRRTSDGLSCQ; listed as Homo sapiens)"
  measurementKind: "MIC"
  numericResult: 50
- substance: "PRT440 (DVNECRQNVCRPDQHCKNTRGGYKCIDLCPNGMTKAENGTCI; listed as Homo sapiens)"
  measurementKind: "MIC"
  numericResult: 25

Prompt: What value of MIC has been recorded for this entry: PRT435 (DMDECSFSEFLCQHECVNQPGTYFCSCPPGYILLDDNRSCQ; listed as Homo sapiens)
Response: 50

Prompt: Now this one: PRT312 (DNNECTSDINLCGSKGICQNTPGSFTCECQRGFSLDQTGSSCE; listed as Homo sapiens)
Response: 50

====

# Tested on: Serratia marcescens
# protocolText: MIC against Gram-negative bacteria: Serratia marcescens
# Format: cell-based
# cond: Serratia marcescens; 5×10^5 CFU/mL; 10 h cultivation at 37° C.
measurementKind: MIC against S. marcescens (µg/mL)
Report only the number, with the unit µg/mL understood.

Reference set, count: 10
- substance: "PRT1430 (DINECAHADPCFPGSSCINTMPGFHCEACPRGYKGTQVS; listed as Homo sapiens)"
  targetDesc: "Serratia marcescens"
  measurementKind: "MIC against S. marcescens"
  numericResult: 25
- substance: "PRT1449 (ACAPGHFGADCRLQCQCQNGGTCDRFSGCVCPSGWHGVHCE; listed as Homo sapiens)"
  targetDesc: "Serratia marcescens"
  measurementKind: "MIC against S. marcescens"
  numericResult: 50
- substance: "PRT1418 (IAHYLDRVVKEGCPGLCNGNGRCTLDLNGWHCVCQLGWRGAGCD; listed as Homo sapiens)"
  targetDesc: "Serratia marcescens"
  measurementKind: "MIC against S. marcescens"
  numericResult: 25
- substance: "PRT1414 (EVDCMDPTCSGRGVCVRGECHCSVGWGGTNCE; listed as Homo sapiens)"
  targetDesc: "Serratia marcescens"
  measurementKind: "MIC against S. marcescens"
  numericResult: 25
- substance: "PRT1388 (RDSCPVLCGGNGEYEKGHCVCRHGWKGPECDV; listed as Homo sapiens)"
  targetDesc: "Serratia marcescens"
  measurementKind: "MIC against S. marcescens"
  numericResult: 12.5
- substance: "PRT1383 (GTRSCPWDCGEGGRCVDGRCVCWPGYTGEDC; listed as Homo sapiens)"
  targetDesc: "Serratia marcescens"
  measurementKind: "MIC against S. marcescens"
  numericResult: 50
- substance: "PRT1453 (DVDECAEPGLSHCHALATCVNVVGSYLCVCPAGYRGDGWHCE; listed as Homo sapiens)"
  targetDesc: "Serratia marcescens"
  measurementKind: "MIC against S. marcescens"
  numericResult: 12.5
- substance: "PRT1401 (VCHPRCIEHGTCKDGKCECREGWNGEHCT; listed as Homo sapiens)"
  targetDesc: "Serratia marcescens"
  measurementKind: "MIC against S. marcescens"
  numericResult: 12.5
- substance: "PRT1439 (EEDECAKPDRGGCEQRCLNTLGSYQCACEPGYELGPDRRSCE; listed as Homo sapiens)"
  targetDesc: "Serratia marcescens"
  measurementKind: "MIC against S. marcescens"
  numericResult: 50
- substance: "PRT1373 (STRSCPGGCRGRGQCLDGRCVCEDGYSGEDC; listed as Homo sapiens)"
  targetDesc: "Serratia marcescens"
  measurementKind: "MIC against S. marcescens"
  numericResult: 12.5

Prompt: What value of MIC against S. marcescens has been recorded for this entry: PRT1352 (SEPECPGNCHLRGRCIDGQCICDDGFTGEDCS; listed as Homo sapiens)
Response: 25

Prompt: Now this one: PRT1392 (TELCTMECGSHGVCSRGICQCEEGWVGPTC; listed as Homo sapiens)
Response: 50

====

MIC P. vulgaris listing for selected substances.
# Test system: Proteus vulgaris
# protocolText: MIC against Gram-negative bacteria: Proteus vulgaris
# Type: cell-based
# cond: 10 h cultivation at 37° C., 5×10^5 CFU/mL, two-fold serial dilution
Report only the number, with the unit µg/mL understood.

- substance: "PRT1072 (TQQVCAGYCANNSTCTVNQGNQPQCRCLPGFLGDRCQ; listed as Homo sapiens)"
  measurementUnit: "µg/mL"
  MIC P. vulgaris: 12.5

Prompt: Notebook: pull reported MIC P. vulgaris for Proteus vulgaris, entry PRT1108 (DLNECNSNPCQSNGECVELSSEKQYGRITGLPSSFSYHEASGYVCICQPGFTGIHCE; listed as Homo sapiens)
Response: 25

Prompt: Now this one: PRT1067 (KLTSCATNASICGDEARCVRTEKAAYCACRSGFHTVPGQPGCQ; listed as Homo sapiens)
Response: 50

Prompt: Now this one: PRT1156 (IIGQCQPHVCFHGNCSNITSNSFICECDEQFSGPFCE; listed as Homo sapiens)
Response: 12.5

====

MIC (μg/mL) E. coli BL21 listing for selected substances.
# System: E. coli BL21
# protocolText: MIC against Gram-negative bacteria: E. coli BL21
# Assay type: cell-based
# cond: E. coli BL21; 10 h cultivation at 37° C.; 5×10^5 CFU/mL
Report only the number, with the unit µg/mL understood.

Reference set, count: 7
- substance: "PRT803 (HGKGCQLPCQCRHGASCDPRAGECLCAPGYTGVYCE; listed as Homo sapiens)"
  measurementKind: "MIC (μg/mL) E. coli BL21"
  measurementUnit: "µg/mL"
  numericResult: 50
- substance: "PRT878 (ADPLCAPARNPCANGGLCTVLAPGEVGCDCSHTGFGGKFCS; listed as Homo sapiens)"
  measurementKind: "MIC (μg/mL) E. coli BL21"
  measurementUnit: "µg/mL"
  numericResult: 25
- substance: "PRT791 (SQECQCHNGGTCDAATGQCHCSPGYTGERCQ; listed as Homo sapiens)"
  measurementKind: "MIC (μg/mL) E. coli BL21"
  measurementUnit: "µg/mL"
  numericResult: 12.5
- substance: "PRT178 (SGVTCADGPCFNGGLCVGGADPDSAYICHCPPGFQGSNCE; listed as Homo sapiens)"
  measurementKind: "MIC (μg/mL) E. coli BL21"
  measurementUnit: "µg/mL"
  numericResult: 50
- substance: "PRT220 (DINECETTNECREDEMCWNYHGGFRCYPRNPCQDPYILTPENRCV; listed as Homo sapiens)"
  measurementKind: "MIC (μg/mL) E. coli BL21"
  measurementUnit: "µg/mL"
  numericResult: 25
- substance: "PRT779 (VSPCSRGYCDHGGQCQHLPSGPRCSCVSFSIYTAWGEHCE; listed as Homo sapiens)"
  measurementKind: "MIC (μg/mL) E. coli BL21"
  measurementUnit: "µg/mL"
  numericResult: 12.5
- substance: "PRT244 (TCAMINCQYSCEDTEEGPQCLCPSSGLRLAPNGRDCL; listed as Homo sapiens)"
  measurementKind: "MIC (μg/mL) E. coli BL21"
  measurementUnit: "µg/mL"
  numericResult: 12.5

Prompt: What value of MIC (μg/mL) E. coli BL21 has been recorded for this entry: PRT248 (DVDECSARRGGCPQRCVNTAGSYWCQCWEGHSLSADGTLCV; listed as Homo sapiens)
Response: 25

====

MIC (μg/mL) S. marcescens listing for selected substances.
# Tested on: Serratia marcescens
# protocolText: MIC against Gram-negative bacteria: Serratia marcescens
# Format: cell-based
# cond: S. marcescens; 10 h cultivation at 37° C.; 5×10^5 CFU/mL
Report only the number, with the unit µg/mL understood.

- substance: "PRT789 (YGNDCHQRCQCQNGATCDHVTGECRCPPGYTGAFCE; listed as Homo sapiens)"
  measurementUnit: "µg/mL"
  numericResult: 12.5

Prompt: What value of MIC (μg/mL) S. marcescens has been recorded for this entry: PRT837 (RFSLCPGGCQSHGQCQPPGVCACEPGWGGPD; listed as Homo sapiens)
Response: 12.5

Prompt: Now this one: PRT146 (DRDECSFQPGPCSTLVQCFNTQGSFYCGACPTGWQGNGYICE; listed as Homo sapiens)
Response: 25

Prompt: Now this one: PRT161 (KVDPCASSPCQNNGTCYVDGVHFTCNCSPGFTGPTCA; listed as Homo sapiens)
Response: 25

Prompt: Now this one: PRT869 (CKCNLHATVCVYDNSKLTCECEHNTTGPDCGKCKKNYQGRPWSPGSYLPIPKGTANTCIP; listed as Homo sapiens)
Response: 50
